# Assay Explanation: Distribution of TQ in brain areas, liver and kidney (HPLC)
# Type: in vivo, Wistar rats
# Conditions Used: male, Wistar, rat, Midbrain, oral, 60 mg/kg TQ, read-out: TQ distribution, Mean ± SEM
Endpoint Name: concentration at 14 days

The recorded concentration at 14 days for entry CC1=CC(=O)C(C(C)C)=CC1=O [TQ, 2-isopropyl-5-methyl-1,4-benzoquinone] equals 7 ng/g

---

# Assay Explanation: Distribution of TQ in brain areas, liver and kidney (HPLC)
# Format: in vivo, Wistar rats
# Conditions Used: male, Wistar, rat, Striatum, oral, 60 mg/kg TQ, read-out: TQ distribution, Mean ± SEM
Endpoint Name: concentration at 14 days (ng/g)
Give bare numbers, in ng/g.

What the record says about CC1=CC(=O)C(C(C)C)=CC1=O : concentration at 14 days is 13

---

# Assay Explanation: Distribution of TQ in brain areas, liver and kidney (HPLC)
# Type: in vivo, Wistar rats
# Conditions Used: male, Wistar, rat, Medulla, oral, 60 mg/kg TQ, read-out: TQ distribution, Mean ± SEM
Endpoint Name: concentration at 14 days
Answer with the number, then the unit.

// CC1=CC(=O)C(C(C)C)=CC1=O [TQ, 2-isopropyl-5-methyl-1,4-benzoquinone] : concentration at 14 days value = 6 ng/g

---

# Assay Explanation: Distribution of TQ in brain areas, liver and kidney (HPLC)
# Assay type: in vivo, Wistar rats
# Conditions Used: male, Wistar, rat, Liver, oral, 60 mg/kg TQ, read-out: TQ distribution, Mean ± SEM
Endpoint Name: concentration at 14 days

concentration at 14 days recorded for this compound, CC1=CC(=O)C(C(C)C)=CC1=O [TQ, 2-isopropyl-5-methyl-1,4-benzoquinone] , is 201 ng/g

---

# Assay Explanation: Distribution of TQ in brain areas, liver and kidney (HPLC)
# Assay type: in vivo, Wistar rats
# Conditions Used: male, Wistar, rat, Cortex, oral, 60 mg/kg TQ, read-out: TQ distribution, Mean ± SEM
Endpoint Name: concentration at 14 days (ng/g)
One number for each entry, in ng/g.

So, CC1=CC(=O)C(C(C)C)=CC1=O [TQ, 2-isopropyl-5-methyl-1,4-benzoquinone] ? Its concentration at 14 days was 25

---

# Assay Explanation: Distribution of TQ in brain areas, liver and kidney (HPLC)
# Format: in vivo, Wistar rats
# Conditions Used: male, Wistar, rat, Hippocampus, oral, 60 mg/kg TQ, read-out: TQ distribution, Mean ± SEM
Endpoint Name: concentration at 14 days
Be sure to follow the number with its unit.

Reported concentration at 14 days of CC1=CC(=O)C(C(C)C)=CC1=O : 2 ng/g

---

# Assay Explanation: Distribution of TQ in brain areas, liver and kidney (HPLC)
# Format: in vivo, Wistar rats
# Conditions Used: male, Wistar, rat, Cerebellum, oral, 60 mg/kg TQ, read-out: TQ distribution, Mean ± SEM
# Procedure: Twenty-eight male Wistar rats with an average weight of 110±10 gm were allocated into four random groups (seven rats/group). […] The four groups received oral dose day by day for 14 days as follows: The first group: the negative control group, received 1:9; DMSO: Saline. […] The duration time of our experiment and the TQ doses were determined following Sheikhbahaei et al. (2016). 's work. […]
Endpoint Name: concentration at 14 days (ng/g)
Answers are plain numbers, in ng/g.

Briefly, concentration at 14 days measured for CC1=CC(=O)C(C(C)C)=CC1=O : 48
